Tested on: Ba/F3 (parental)
TEST METHOD NOTES: Inhibition of cell proliferation (GI50)
Type: cell-based
CONDITION DETAILS: Mus musculus, BaF3; Ba/F3 (parental) cell line; read-out: Proliferation inhibitory activity (GI50, μM) Ba/F3 (parental)
METRIC NAME: GI50

Example entries begin here.
Cc1ccc(NC(=O)c2cccc(C(F)(F)F)c2)cc1-c1cc2cnc(NC3CC3)nc2cn1 [Compound No. 19] : 0.5 to 3 µM
Cc1ccc(NC(=O)c2cccc(C(F)(F)F)c2)cc1-c1cc2cnc(NCCO)nc2cn1 [Compound No. 18] : > 5 µM
Cc1ccc(Nc2ncc3c(n2)N(C)C(=O)N(c2cc(NC(=O)c4cccc(C(F)(F)F)c4)ccc2C)C3)cn1 [GNF 7, reference compound] : 3 to 5 µM

State recorded GI50 for all listed molecules.
1. CCc1nc(-c2cc(NC(=O)c3cccc(C(F)(F)F)c3)ccc2C)cc2cnc(Nc3ccc(C)nc3)nc12 [Compound No. 3]
2. Cc1ccc(Nc2ncc3cc(-c4cc(NC(=O)c5ccc(CN6CCOCC6)c(C(F)(F)F)c5)ccc4C)ncc3n2)cn1 [Compound No. 12]
3. Cc1ccc(Nc2ncc3cc(-c4cc(NC(=O)c5cccc(C(F)(F)F)c5)ccc4C)nc(Cl)c3n2)cn1 [Compound No. 1]
4. C=Cc1nc(-c2cc(NC(=O)c3cccc(C(F)(F)F)c3)ccc2C)cc2cnc(Nc3ccc(C)nc3)nc12 [Compound No. 2]

Result:
["> 5 µM", "> 5 µM", "> 5 µM", "3 to 5 µM"]

###

Please provide measured IC50 for the entries that follow.
TESTED TARGET: ACK1 (Homo sapiens)
Sequence (Q07912 whole entry): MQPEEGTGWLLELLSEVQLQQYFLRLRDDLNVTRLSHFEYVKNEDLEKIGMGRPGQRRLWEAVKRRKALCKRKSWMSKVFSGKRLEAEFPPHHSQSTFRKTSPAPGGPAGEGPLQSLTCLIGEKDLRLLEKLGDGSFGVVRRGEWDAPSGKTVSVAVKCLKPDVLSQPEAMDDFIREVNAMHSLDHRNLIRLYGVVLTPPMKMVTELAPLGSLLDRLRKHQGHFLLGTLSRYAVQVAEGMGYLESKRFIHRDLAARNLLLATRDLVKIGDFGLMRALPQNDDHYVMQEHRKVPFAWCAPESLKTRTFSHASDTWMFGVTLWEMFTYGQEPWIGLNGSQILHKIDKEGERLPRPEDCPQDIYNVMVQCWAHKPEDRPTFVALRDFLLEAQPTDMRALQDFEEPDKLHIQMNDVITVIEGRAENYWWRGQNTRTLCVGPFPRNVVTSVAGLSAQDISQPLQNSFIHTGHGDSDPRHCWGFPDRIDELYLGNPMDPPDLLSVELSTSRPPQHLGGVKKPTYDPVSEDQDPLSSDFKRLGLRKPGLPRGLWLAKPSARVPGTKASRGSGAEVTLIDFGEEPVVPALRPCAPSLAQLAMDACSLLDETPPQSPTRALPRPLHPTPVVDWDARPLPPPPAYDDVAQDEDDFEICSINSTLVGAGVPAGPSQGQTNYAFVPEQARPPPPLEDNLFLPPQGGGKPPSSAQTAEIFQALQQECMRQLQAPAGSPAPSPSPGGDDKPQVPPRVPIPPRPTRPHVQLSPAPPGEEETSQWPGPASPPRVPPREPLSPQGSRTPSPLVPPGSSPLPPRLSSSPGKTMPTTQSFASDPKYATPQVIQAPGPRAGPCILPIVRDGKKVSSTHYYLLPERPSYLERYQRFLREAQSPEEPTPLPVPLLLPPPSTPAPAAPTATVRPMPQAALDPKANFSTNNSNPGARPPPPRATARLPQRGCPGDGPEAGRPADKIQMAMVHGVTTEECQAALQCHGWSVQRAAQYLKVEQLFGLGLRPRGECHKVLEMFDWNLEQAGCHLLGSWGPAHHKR

Cc1ccc(NC(=O)c2cccc(C(F)(F)F)c2)cc1-c1cc2cnc(NCCO)nc2cn1 : 100 to 1000 nM

Could you tell me IC50 for each of these compounds? They are listed below.
1. Cc1ccc(Nc2ncc3cc(-c4cc(NC(=O)c5cccc(C(F)(F)F)c5)ccc4C)ncc3n2)cn1
2. Cc1ccc(Nc2ncc3c(n2)N(C)C(=O)N(c2cc(NC(=O)c4cccc(C(F)(F)F)c4)ccc2C)C3)cn1 [GNF 7, reference compound]

Result:
< 100 nM
< 100 nM
